# Assay Info: Cytotoxicity against human Bel7404 cells by MTT assay
# Assay type: functional, cell-based, BEL-7404
# Condition Parameters: Homo sapiens, BEL-7404; read-out: IC50
// IC50 lookup, one value per entry
Reported Metric: IC50 (nM)

| Compound | Reported Metric | U | Quantitative Readout |
| --- | --- | --- | --- |
| O=C1C=CC(=O)C12C=CC1(Oc3cccc4cccc(c34)O1)C2O (configuration not stated) | IC50 | nM | 3000 |
| CC(=O)O[C@H]1C(=O)[C@@]2(C)[C@H]([C@H](OC(=O)c3ccccc3)[C@]3(O)C[C@H](OC(=O)[C@H](O)[C@@H](NC(=O)c4ccccc4)c4ccccc4)C(C)=C1C3(C)C)[C@]1(OC(C)=O)CO[C@@H]1C[C@@H]2O | IC50 | nM | 12.3 |

###

# Test system: BGC-823
# Assay Info: Cytotoxicity against human BGC823 cells by MTT assay
# Format: functional, cell-based
# Condition Parameters: Homo sapiens, BGC-823; read-out: IC50
// IC50 lookup, one value per entry

| Compound | Tested Target | Cmp | IC50 (nM) |
| --- | --- | --- | --- |
| CC(=O)O[C@H]1C(=O)[C@@]2(C)[C@H]([C@H](OC(=O)c3ccccc3)[C@]3(O)C[C@H](OC(=O)[C@H](O)[C@@H](NC(=O)c4ccccc4)c4ccccc4)C(C)=C1C3(C)C)[C@]1(OC(C)=O)CO[C@@H]1C[C@@H]2O [PACLITAXEL] | BGC-823 | = | 3.3 |
| O=C1C=CC(=O)C12C=CC1(Oc3cccc4cccc(c34)O1)C2O (configuration not stated) [SPIROPREUSSIONE A] | BGC-823 | > | 10000 |
